Test system: HCT-116
Test: NCI tumour cell line growth inhibition, 48 h
Activity calls are given as the source filed them. No stated cut-off is given here; in the data, active = GI50 up to about 1.1 µM and inactive = higher.
Please answer using one outcome listed in active, inactive

Completed entries (count: 2):
{"MOLECULE": "C[C@@H](NC(=O)OC1C=CC2(CC1)C(=O)N(C)c1ccccc12)c1cccc2ccccc12 (some centres undefined)", "CLASS_NAME": "inactive"}
{"MOLECULE": "CCCNc1[nH]c(C(=O)c2ccccc2)c(N)c1C(=S)Nc1ccccc1", "CLASS_NAME": "inactive"}

Pending molecule:
query: Field: outcome | Entry: O=C(NC1CCC[C@H]1OC(=O)c1ccccc1)c1ccccc1 (some centres undefined)
result: inactive

Reference source: ChEMBL document CHEMBL1201862
